system_tested: T1, GST-human NOGO-A56 (human)
T1 construct: Expressed in E. coli BL21 from pGEX-6P1 and purified on glutathione-sepharose; the GST tag is part of the protein in the assays; also called GST-Nogo-A 5+6; GST Nogo-A 5 + 6
experimental_details: SPR (Biacore T100), reverse format: antibody captured by Protein A, GST Nogo-A 5+6 0.125-8 nM flowed over; mean (SD in brackets)

binder	Kd, nM
HcLc (chimera of 2A10: murine 2A10 VH and VL with human IgG constant regions) (antibody, V domains shown, also called chimeric antibody; chimeric form of the parental antibody) VH: QVQLQQPGTELVKPGASVKLSCKASGYTFTSYWMHWVKQRPGQGLEWIGNINPSNGGTNYNEKFKSKATLTVDKSSSTAYMQLSSLTSEDSAVYYCELGQGYWGQGTLVTVSS VL: DIVITQDELSNPVTSGESVSISCRSSKSLLYKDGKTYLNWFLQRPGQSPQLLIYLMSTRASGVSDRFSGSGSGTDFTLEISRVKAEDVGVYYCQQLVEYPLTFGAGTKLELKR	0.41
